assay: chemical genetic growth profiling, strain panel (AID 1159580);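 note: tested at 20 µM; growth read once vehicle control cultures reached saturation at 30 °C; 1 = growth at the plate median or of vehicle wells; lower values mean less growth of the strain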
experimental_setup: S. cerevisiae deletion strains, growth OD, locus YKR001C, strain vps1, stronger effect = lower value
The campaign covered roughly 5,500 compounds. About 2,000 (36%) were called active. Inconclusive results (about 18%) are left out. This is one part of the list.
attribute_measured: normalized growth
Answer with a number only.

The cases that follow already have their normalized growth on record.
CC1CCc2cc(F)cc3c(=O)c(C(=O)O)cn1c23 (configuration not stated)    0.998
CCC[C@H](N[C@@H](C)C(=O)N1[C@H](C(=O)O)C[C@@H]2CCCC[C@@H]21)C(=O)OCC    1.03
CN(C)CCOC(c1ccc(Cl)cc1)c1ccccn1 (configuration not stated)    1

Which measured normalized growth value corresponds to O=c1cccc2ccc(O)c(O)c2c1O ?
0.453

What does the data say about its normalized growth? Entry: Cc1ccccc1C(OCCN(C)C)c1ccccc1 (configuration not stated)
1.03

Look up normalized growth: Clc1ccc(C(OCCN2CCCCC2)c2ccccc2)cc1 (configuration not stated)
0.994

Give its normalized growth value. Item: CN1CC(=O)N=C1N
1.01

# query: normalized growth of entry C[C@H]1COc2c(N3CCN(C)CC3)c(F)cc3c(=O)c(C(=O)O)cn1c23
1.03

So what does the record say about normalized growth for CC1COc2c(N3CCN(C)CC3)c(F)cc3c(=O)c(C(=O)O)cn1c23 (configuration not stated) ?
1.03
